System: biotinyl-Val-oxazolone
Assay: self-aminoacylation, catalytic enhancement (BVO) (fold over background); higher = more active; k-Seq, kA / k0A0; sequences stand for … in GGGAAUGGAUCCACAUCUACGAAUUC…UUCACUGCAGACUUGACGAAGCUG
Variants at the floor of the assay were thinned out.
observed property: self-aminoacylation
Numbers only.

Field self-aminoacylation (system: biotinyl-Val-oxazolone) for entry CUACUACAAACAAUAGGUCUG [Fam1A.1 aminoacylation ribozyme variant] = 0.94

Field self-aminoacylation (system: biotinyl-Val-oxazolone) for entry AAAUUAGCUAAUAGUCGCAAG [Fam3.1 aminoacylation ribozyme variant] = 1.81

Field self-aminoacylation (system: biotinyl-Val-oxazolone) for entry AAGUUUGUUGAUAGUCGCAAG [Fam3.1 aminoacylation ribozyme variant] = 1.09

Field self-aminoacylation (system: biotinyl-Val-oxazolone) for entry AAGGUUGCUAAUAGUCGCUAG [Fam3.1 aminoacylation ribozyme variant] = 1.03

Please supply self-aminoacylation for each of the following items, keeping them in order.
1. CUACUUCAAAAAAUCGGUCUU [Fam1A.1 aminoacylation ribozyme variant]
2. AUCUCCCUGGUCAUCGAGUGA [Fam2.1 aminoacylation ribozyme variant]

Reply:
1. 0.807
2. 4.7
